- measuredTarget: MAP3K1 activated murine MAP2K4 (MAP2K4-AC) (Mus musculus, UniProt P47809)
- Construct: purchased Millipore 14-377
- Sequence (P47809 whole entry): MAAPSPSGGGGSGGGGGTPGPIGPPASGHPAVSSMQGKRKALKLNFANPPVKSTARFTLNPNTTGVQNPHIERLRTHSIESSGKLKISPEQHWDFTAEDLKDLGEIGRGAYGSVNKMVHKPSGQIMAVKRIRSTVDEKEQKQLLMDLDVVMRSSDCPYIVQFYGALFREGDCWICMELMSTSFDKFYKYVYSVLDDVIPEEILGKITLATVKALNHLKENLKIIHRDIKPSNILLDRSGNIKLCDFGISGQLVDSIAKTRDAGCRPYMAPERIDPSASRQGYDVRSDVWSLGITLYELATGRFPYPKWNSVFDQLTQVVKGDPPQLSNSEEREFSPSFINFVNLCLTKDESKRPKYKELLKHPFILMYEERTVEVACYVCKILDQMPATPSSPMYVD
- protocolDescription: In vitro MAP2K4 kinase assay, p38α MAPK (K53A) substrate, Western blot densitometry
- Type: biochemical
- conditionsUsed: kinase dead p38α MAPK-K53A substrate; 1 µM ATP; mean (95% confidence intervals); read-out: IC50-p38
pIC50: −log10 of the molar value.
Would you please tag the item 1 when its pIC50 is 5 or above, and 0 when it is below?

Take a look at these entries with their results.
O=C(/C=C/c1ccccc1)c1ccc(O)cc1O [2′,4′-dihydroxychalcone] | 0
O=c1c(O)c(-c2ccccc2)oc2cc(O)ccc12 [3,7-dihydroxyflavone] | 1
O=C1c2ccccc2-c2n[nH]c3cccc1c23 | 1

Now examine the next entry.
// inclusive: pIC50 at least 5? input: O=c1c(O)c(-c2ccc(O)c(O)c2)oc2cc(O)cc(O)c12
1

* * *

- measuredTarget: human MAP2K4-EE (Homo sapiens, UniProt P45985, S257E/T261E)
- Construct: Human MAP2K4-EE (residues 37–399); His tag (pMCSG7 vector, TEV-cleavable) (N); made in house; host or cells: E. coli KRX cells with pGro7 (GroEL/GroES)
- protocolDescription: Fluorescence-based thermal shift (FTS) assay
- Type: binding
- conditionsUsed: 10 µM compound, mean ± SD, n = 3, 10 µM
- Protocol: Small molecule screening by FTS assay was performed as described previously, [23] but with modifications, using an Echo550 (Labcyte) for compound transfer and a Mosquito (TTP Labtech) to dispense protein into 384 well PCR plates. Purified MAP2K4-EE was appropriately diluted in a buffer containing 100 mM Hepes, pH 7.5, 150 mM NaCl. […] The PCR plates were sealed with optical seal, shaken, and centrifuged after protein and compounds were added. […]
valueKind: ΔTm at 10 µM (°C)
Numeric only. Scale: °C

O=C1c2ccccc2-c2n[nH]c3cccc1c23 | 6.4
O=C(/C=C/c1ccccc1)c1ccc(O)cc1O [2′,4′-dihydroxychalcone] | 3.67
O=c1c(O)c(-c2ccccc2)oc2cc(O)ccc12 [3,7-dihydroxyflavone] | 2.55
Cc1ccc(-c2nn(C(C)(C)C)c3ncnc(N)c23)cc1 | 2.55
CC(C)(C)n1nc(-c2ccc(Cl)cc2)c2c(N)ncnc21 | 2.33

Missing value: ΔTm at 10 µM, human MAP2K4-EE (Homo sapiens, UniProt P45985, S257E/T261E), entry Nc1ncnc2c1c(I)cn2[C@@H]1O[C@H](CO)[C@@H](O)[C@H]1O . Fill in?
4.29

Kindly state the measured ΔTm at 10 µM obtained for COc1cc(/C=C(\C#N)C(N)=O)cc(CSc2nc3ccccc3s2)c1O with human MAP2K4-EE (Homo sapiens, UniProt P45985, S257E/T261E).
2.26

Recorded ΔTm at 10 µM for O=c1cc(-c2ccccc2)oc2cc(O)cc(O)c12 [Chrysin, 5,7-dihydroxyflavone] with human MAP2K4-EE (Homo sapiens, UniProt P45985, S257E/T261E), please?
1.78

Enter reported ΔTm at 10 µM observed with human MAP2K4-EE (Homo sapiens, UniProt P45985, S257E/T261E) for O=C(CCc1ccc(O)cc1)c1c(O)cc(O)cc1O
2.69

* * *

Recorded IC50, one value per entry.
- measuredTarget: MAP3K1 activated murine MAP2K4 (MAP2K4-AC) (Mus musculus, UniProt P47809)
- Construct: purchased Millipore 14-377
- protocolDescription: In vitro MAP2K4 kinase assay, JNK1 (K55M) substrate, Western blot densitometry
- Format: biochemical
Respond with the bare value in µM.

CC(C)(C)n1nc(-c2ccc(Cl)cc2)c2c(N)ncnc21 | 22.3

Proceeding to the next compound to report its IC50.
# query: IC50 | item Cc1ccc(-c2nn(C(C)(C)C)c3ncnc(N)c23)cc1 | system: MAP3K1 activated murine MAP2K4 (MAP2K4-AC) (Mus musculus, UniProt P47809)
16.9

* * *

- measuredTarget: human MAP2K4-EE (Homo sapiens, UniProt P45985, S257E/T261E)
- Construct: Human MAP2K4-EE (residues 37–399); His tag (pMCSG7 vector, TEV-cleavable) (N); made in house; host or cells: E. coli KRX cells with pGro7 (GroEL/GroES)
- Sequence (P45985 37-399 S257E/T261E): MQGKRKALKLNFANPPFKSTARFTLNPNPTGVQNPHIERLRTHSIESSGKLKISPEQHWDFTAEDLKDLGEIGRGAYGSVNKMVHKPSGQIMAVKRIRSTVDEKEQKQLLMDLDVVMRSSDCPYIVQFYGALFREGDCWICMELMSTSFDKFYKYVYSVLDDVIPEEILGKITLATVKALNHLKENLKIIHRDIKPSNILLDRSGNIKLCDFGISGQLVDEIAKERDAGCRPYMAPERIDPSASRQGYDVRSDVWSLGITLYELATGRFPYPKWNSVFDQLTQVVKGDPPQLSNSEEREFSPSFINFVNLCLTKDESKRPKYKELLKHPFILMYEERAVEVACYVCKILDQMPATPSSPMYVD
- protocolDescription: Fluorescence-based thermal shift (FTS) assay
- Format: binding
- conditionsUsed: 10 µM compound, mean ± SD, n = 3, read-out: ΔTm at 10 µM
- Experimental: Small molecule screening by FTS assay was performed as described previously, [23] but with modifications, using an Echo550 (Labcyte) for compound transfer and a Mosquito (TTP Labtech) to dispense protein into 384 well PCR plates. Purified MAP2K4-EE was appropriately diluted in a buffer containing 100 mM Hepes, pH 7.5, 150 mM NaCl. […] The PCR plates were sealed with optical seal, shaken, and centrifuged after protein and compounds were added. […]
valueKind: ΔTm at 10 µM (°C)
Provide only the numeric value, understood in °C.

Field request: ΔTm at 10 µM | item: O=c1cc(-c2ccccc2)oc2cc(O)cc(O)c12 [Chrysin, 5,7-dihydroxyflavone]
1.8

Given the compound O=C(/C=C/c1ccccc1)c1ccc(O)cc1O [2′,4′-dihydroxychalcone] , what is its reported ΔTm at 10 µM?
3.7

Fill in the blank: the reported ΔTm at 10 µM of COc1cc(/C=C(\C#N)C(N)=O)cc(CSc2nc3ccccc3s2)c1O [AG825] is ____.
2.3

For the compound CC(C)(C)n1nc(-c2ccc(Cl)cc2)c2c(N)ncnc21 [PP2] , what ΔTm at 10 µM is on record?
2.3

Give the measured ΔTm at 10 µM of O=C(CCc1ccc(O)cc1)c1c(O)cc(O)cc1O [Phloretin] .
2.7

Given O=c1cc(-c2ccc(O)cc2)oc2cc(O)cc(O)c12 [Apigenin] , state its recorded ΔTm at 10 µM.
2.8

Would you kindly share the measured ΔTm at 10 µM for Cc1ccc(-c2nn(C(C)(C)C)c3ncnc(N)c23)cc1 [PP1] ?
2.5

# get_value(readout='ΔTm at 10 µM', item= Nc1ncnc2c1c(I)cn2[C@@H]1O[C@H](CO)[C@@H](O)[C@H]1O [5-iodotubercidin] )
4.3

Any idea what its ΔTm at 10 µM is? The compound is O=c1c(O)c(-c2ccc(O)c(O)c2)oc2cc(O)cc(O)c12 [Quercetin]
2.75

Need ΔTm at 10 µM of O=c1c(O)c(-c2ccccc2)oc2cc(O)ccc12 [3,7-dihydroxyflavone] , thanks.
2.5
